Kindly state growth for each of the entries shown.
- System: HOP-92 NSCLC
- protocol-details: NCI-60 one-dose screen, 48 h (100 = growth as untreated, 0 = no growth, -100 = all killed)
- applied-conditions: 10 µM unless noted
About 83,000 compounds went through this panel and 20% of them were active in at least one assay; those are over-represented in the sample as a whole. The source made the active and inactive calls. Rule for the calls: active = growth percent below 10; inactive = the rest.

Entry O=C(Oc1ccc(CO[N+](=O)[O-])cc1)c1ccccc1 : reported growth = ?
-88% (active)

Entry COc1ccc(/C=C2/C(=O)N=C3N2NC(c2ccccc2)=CN3c2ccccc2)cc1 : reported growth = ?
102% (inactive)

Entry O=C1C(c2c[nH]c3ccccc23)=C(c2coc3cc(Br)ccc23)C(=O)N1O : reported growth = ?
92.1% (inactive)

Entry Fc1ccccc1-c1cnn2cc(-c3ccccc3)cnc12 : reported growth = ?
100% (inactive)

Entry COc1ccc(CCNC(=O)COc2cc3c(Nc4ccc(F)c(Cl)c4)ncnc3cc2OC)cc1OC : reported growth = ?
87.9% (inactive)

Entry Cc1c(O)c(O)cc2c3c(oc12)CC(c1ccc2c(c1)OCO2)CC3=O (stereo unspecified) : reported growth = ?
-37.4% (active)

Entry CCN1CCN(CC(=O)Nc2nc3ccc(NCc4ccc(C)cc4)cc3s2)CC1 : reported growth = ?
39% (inactive)

Entry CCC(=C(c1ccc(OCCCN(C)C)cc1)c1ccc(OCCCN(C)C)cc1)c1ccc(Cl)cc1 : reported growth = ?
-80% (active)

Entry Cc1ccc(C(=O)Nc2ccc(CN3CCN(C)CC3)c(C(F)(F)F)c2)cc1C#Cc1cnc(N)cc1C#N : reported growth = ?
-39.8% (active)

Entry CCCCCCCCCCCCCCCCCCn1cc(COc2ccc(C=O)cc2)nn1 : reported growth = ?
135% (inactive)

Entry COc1ccc(/C=C2\COc3ccc(O)c(O)c3C2=O)c(OC)c1OC : reported growth = ?
38.9% (inactive)

Entry Cn1cc(C2=C(c3cccc4ccccc34)C(=O)NC2=O)c2cc(Br)ccc21 : reported growth = ?
171% (inactive)

Entry CCOC(=O)c1ccc(Nc2ncnc3c2cnn3-c2cccc(F)c2)cc1 : reported growth = ?
90.6% (inactive)

Entry Nc1c(C(=O)Nc2ccncc2)sc2nc3c(cc12)CCCCCCCC3 : reported growth = ?
-76.2% (active)

Entry Nn1c(-c2ccc(Cl)cc2)nc2c(-c3ccc(Cl)cc3)nc3ccc(Cl)cc3c2c1=O : reported growth = ?
27.4% (inactive)

Entry c1ccc(Cc2cccc[n+]2C(c2ccccc2)c2ccccc2)cc1 : reported growth = ?
32.5% (inactive)

Entry O=C1/C(=C/c2ccc(-c3cccc(C(F)(F)F)c3)o2)SC(=S)N1CCc1ccc(O)cc1 : reported growth = ?
63.5% (inactive)

Entry CC1(Cc2ccccc2)CC2=C(C(=O)O1)C(c1ccccc1)NC(=O)N2 (stereo unspecified) : reported growth = ?
77% (inactive)

Entry COc1ccc(Cn2cc(C(=O)Nc3cccnc3Nc3ccccc3)nn2)cc1 : reported growth = ?
105% (inactive)

Entry CCN(CC)CC#CCOC(=O)[C@]1(C)CCC[C@]2(C)c3ccc(C(C)C)cc3CC[C@@H]12 : reported growth = ?
76.7% (inactive)

Entry CC(=O)c1c(C)nc(SCC(=O)Nc2ccc(Cl)cc2)n1-c1ccc(Cl)cc1 : reported growth = ?
110% (inactive)
